So I've got a bunch of binders here, and I need their pKd values.
- testedSystem: T1, AAV8 (adeno-associated virus serotype 8)
- T1 construct: also called adeno-associated virus serotype 8
- assayRemarks: SPR, AAV on CM5 chip
Reminder that pKd is minus the log10 of a molar concentration.

Asked: # get_value(readout='pKd', item= A4-H4 (VHH) VHH: VQLVESGGGLVQPGGSLRLSCAASGSIFSINLMGWFRQAPGKGLELVAIITPGGNTYYADSVKGRFTISRDNSKNTVYLQMNSLRAEDTAVYYCHVDEVRQSSWTTSNLWGQGTLVTVSS )
Given back: 8.03

Asked: Tell me the measured pKd of A4-H2 (VHH) VHH: VQLQASGGGFVQPGGSLRLSCAASGRSFSINTMGWFRQAPGKEREFVAVVTRGGSTYYADSVKGRFTISRDNSKNTVYLQMNSLRAEDTATYYCHIDEVRQSSWTTSNIWGQGTQVTVSS , please.
Given back: 8.70
